System: RKO (RKOp27) human colon adenocarcinoma cells
ASSAY DETAILS: Alamar Blue cell viability assay, anti-proliferative/cytotoxic activity, RKO p27 uninduced
Type: cell-based
CONDITION DETAILS: RKOp27, 72 h, proliferating cells, absence of the inducer Ponasterone A, 72 hours incubation
QUANTITY NAME: IC50

Per the records, this molecule ( COC(=O)N1CCc2c(sc(NC(=O)c3ccccc3)c2C#N)C1 ) has IC50 equal to ≤ 3 µM

Per the records, this molecule ( N#Cc1c(NC(=O)c2ccccc2)sc2c1CCN(C(=O)CCCc1cccs1)C2 ) has IC50 equal to ≤ 2 µM

Per the records, this molecule ( CCOC(=O)N1CCc2c(sc(NC(=O)c3ccccc3C)c2C#N)C1 ) has IC50 equal to ≤ 3 µM

Per the records, this molecule ( CCCCCCOC(=O)N1CCc2c(sc(NC(=O)c3ccccc3)c2C#N)C1 ) has IC50 equal to ≤ 3 µM

Per the records, this molecule ( CCCCCOC(=O)N1CCc2c(sc(NC(=O)c3ccccc3)c2C#N)C1 ) has IC50 equal to ≤ 2 µM

Per the records, this molecule ( N#Cc1c(NC(=O)c2ccccc2)sc2c1CCN(C(=O)Cc1cccnc1)C2 ) has IC50 equal to ≤ 3 µM

Per the records, this molecule ( N#Cc1c(NC(=O)c2ccccc2)sc2c1CCN(C(=O)CCn1cnnc1)C2 ) has IC50 equal to ≤ 3 µM

Per the records, this molecule ( Cc1ncsc1CCOC(=O)N1CCc2c(sc(NC(=O)c3ccccc3)c2C#N)C1 ) has IC50 equal to ≤ 2 µM

Per the records, this molecule ( CCOC(=O)N1CCc2c(sc(NC(=O)c3ccccc3[N+](=O)[O-])c2C#N)C1 ) has IC50 equal to ≤ 3 µM

Per the records, this molecule ( N#Cc1c(NC(=O)c2ccccc2)sc2c1CCN(C(=O)CO)C2 ) has IC50 equal to ≤ 3 µM

Per the records, this molecule ( N#Cc1c(NC(=O)c2ccccc2)sc2c1CCN(C(=O)SCCC(=O)O)C2 ) has IC50 equal to ≤ 3 µM

====

System: RKO (RKOp27) human colon adenocarcinoma cells
ASSAY DETAILS: Alamar Blue cell viability assay, anti-proliferative/cytotoxic activity, RKO p27 uninduced
Assay type: cell-based
CONDITION DETAILS: RKOp27, 72 h, proliferating cells, absence of the inducer Ponasterone A, 72 hours incubation
Experimental: The anti-proliferative/cytotoxic activity of the compounds described herein, can be tested on subdlones of RKO (RKOp27) human colon adenocarcinoma cells (Schmidt et al., Oncogene 19, 2423-2429; 2000) using the Alamar Blue cell viability assay (described in O'Brien et al. Eur J Biochem 267, 5421-5426, 2000). […] To determine the viability of the cells, 10 μl of an Alamar Blue solution (Biosource) are added and the fluorescence is measured at an extinction of 544 nm and an emission of 590 nm. […]
Can you tell me IC50 for the items I'm about to list?

Per the records, this molecule ( COCCC(=O)N1CCc2c(sc(NC(=O)c3ccccc3)c2C#N)C1 ) has IC50 equal to ≤ 2 µM

Per the records, this molecule ( CCOC(=O)N1CCc2c(sc(NC(=O)c3cccc(O)c3)c2C#N)C1 ) has IC50 equal to ≤ 3 µM

Per the records, this molecule ( CCCC(=O)N1CCc2c(sc(NC(=O)c3cccc(OC)c3)c2C#N)C1 ) has IC50 equal to ≤ 2 µM

Per the records, this molecule ( CCOC(=O)N1CCc2c(sc(NC(=O)c3cccc(OC)c3)c2C#N)C1 ) has IC50 equal to ≤ 2 µM

Per the records, this molecule ( CC(C)COC(=O)N1CCc2c(sc(NC(=O)c3ccccc3)c2C#N)C1 ) has IC50 equal to ≤ 3 µM

Per the records, this molecule ( COC(=O)CCSC(=O)N1CCc2c(sc(NC(=O)c3ccccc3)c2C#N)C1 ) has IC50 equal to ≤ 3 µM

Per the records, this molecule ( N#Cc1c(NC(=O)c2ccccc2)sc2c1CCN(C(=O)Oc1ccccc1)C2 ) has IC50 equal to ≤ 3 µM

Per the records, this molecule ( CCOC(=O)N1CCc2c(sc(NC(=O)c3ccc(OC)cc3)c2C#N)C1 ) has IC50 equal to ≤ 3 µM

Per the records, this molecule ( COC(=O)COC(=O)N1CCc2c(sc(NC(=O)c3ccccc3)c2C#N)C1 ) has IC50 equal to ≤ 3 µM

Per the records, this molecule ( COc1cc(OC)cc(C(=O)Nc2sc3c(c2C#N)CCN(C(C)=O)C3)c1 ) has IC50 equal to ≤ 2 µM

Per the records, this molecule ( CCOC(=O)N1CCc2c(sc(NC(=O)c3cccc([N+](=O)[O-])c3)c2C#N)C1 ) has IC50 equal to ≤ 3 µM

Per the records, this molecule ( COC(=O)CCC(=O)N1CCc2c(sc(NC(=O)c3ccccc3)c2C#N)C1 ) has IC50 equal to ≤ 2 µM

Per the records, this molecule ( N#Cc1c(NC(=O)c2ccccc2)sc2c1CCN(C(=O)CCCO)C2 ) has IC50 equal to ≤ 3 µM

Per the records, this molecule ( N#Cc1c(NC(=O)c2ccccc2)sc2c1CCN(C(=O)OCCCN1CCOCC1)C2 ) has IC50 equal to ≤ 3 µM

Per the records, this molecule ( CCOC(=O)N1CCc2c(sc(NC(=O)c3cc(OC)cc(OC)c3)c2C#N)C1 ) has IC50 equal to ≤ 2 µM

Per the records, this molecule ( N#Cc1c(NC(=O)c2ccccc2)sc2c1CCN(C(=O)CCc1c[nH]c3ccccc13)C2 ) has IC50 equal to ≤ 3 µM

Per the records, this molecule ( N#Cc1c(NC(=O)c2ccccc2)sc2c1CCN(C(=O)OCCO)C2 ) has IC50 equal to ≤ 3 µM

Per the records, this molecule ( CCOC(=O)N1CCc2c(sc(NC(=O)c3cccc(Cl)c3)c2C#N)C1 ) has IC50 equal to ≤ 3 µM
